Answer each item with its documented EF (ZEAMX).
Tested on: ZEAMX
experiment.summary: Drought stress test on crop plants in greenhouse, spray application
Format: in vivo, Zea mays
run.parameters: dosage 500 g/ha, efficacy = percentage reduction in intensity of damage, mean of three results

In: What measured EF (ZEAMX) goes with Cc1ccc(-c2nc3ccccc3c(=O)[nH]2)o1 ?
Out: >5%

In: Check Cc1nc[nH]c1-c1nc2cc(Cl)ccc2c(=O)[nH]1 too.
Out: >5%

In: And then O=c1[nH]c(C2CCCC2)nc2c(O)cccc12 , what is it?
Out: >5%

In: Another compound to check: CCCCCc1nc2c(OC)cccc2c(=O)[nH]1
Out: >5%

In: Same question, Cc1cc(-c2nc3ccccc3c(=O)[nH]2)oc1C this time
Out: >5%

In: Try CC(C)c1nc2ccccc2c(=O)[nH]1 next.
Out: >5%

In: Please give the result for O=c1[nH]c(-c2nc[nH]n2)nc2ccccc12 too.
Out: >5%

In: Same for COc1cccc2c(=O)[nH]c(C3CCCC3)nc12
Out: >5%
